MEASUREMENT_NOTES: Clearance in mouse liver microsomes in presence of NADPH
Type: ADME, Microsome
READOUT_NAME: CLhep predicted (mL/min/kg)

>>> experimental_value("CC(C)NCC(O)COc1cccc2ccccc12 (centres undefined)")
86.6
>>> experimental_value("O=C(c1ccc(/C=C2\\SC(=S)N(c3cccc(C(F)(F)F)c3)C2=O)cc1)N1CCC(O)CC1")
82.4
>>> experimental_value("CN1CCN(C(=O)c2ccc(/C=C3\\SC(=S)N(c4cccc(C(F)(F)F)c4)C3=O)cc2)CC1")
86.6
>>> experimental_value("O=C(c1ccc(/C=C2\\SC(=S)N(c3cccc(OC(F)(F)F)c3)C2=O)cc1)N1CCOCC1")
58.1
>>> experimental_value("CN1CCN(C(=O)c2ccc(/C=C3\\SC(=S)N(c4cccc([N+](=O)[O-])c4)C3=O)cc2)CC1")
86.5
>>> experimental_value("CN1CCN(C(=O)c2ccc(/C=C3\\SC(=S)N(c4cccc(OC(F)(F)F)c4)C3=O)cc2)CC1")
83
>>> experimental_value("O=C(O)c1ccc(/C=C2\\SC(=S)N(c3cccc(C(F)(F)F)c3)C2=O)cc1")
69.8

* * *

MEASUREMENT_NOTES: Half life in human liver microsomes in presence of NADPH
Assay type: ADME, Microsome
Each entry below carries its recorded log10 half-life.
READOUT_NAME: log10 half-life (log10 of the value in min)

>>> experimental_value("CN1CCN(C(=O)c2ccc(/C=C3\\SC(=S)N(c4cccc(OC(F)(F)F)c4)C3=O)cc2)CC1")
1.43
>>> experimental_value("C[C@]12CC[C@H]3[C@@H](CCC4=CC(=O)CC[C@@]43C)[C@@H]1CC[C@@H]2O")
2.44
>>> experimental_value("CN1CCN(C(=O)c2ccc(/C=C3\\SC(=S)N(c4cccc(C(F)(F)F)c4)C3=O)cc2)CC1")
1.19
>>> experimental_value("O=C(c1ccc(/C=C2\\SC(=S)N(c3cccc(C(F)(F)F)c3)C2=O)cc1)N1CCC(O)CC1")
1.64
>>> experimental_value("CN1CCN(C(=O)c2ccc(/C=C3\\SC(=S)N(c4cccc([N+](=O)[O-])c4)C3=O)cc2)CC1")
1.14
>>> experimental_value("O=C(c1ccc(/C=C2\\SC(=S)N(c3cccc(OC(F)(F)F)c3)C2=O)cc1)N1CCOCC1")
2.27
>>> experimental_value("CC(C)NCC(O)COc1cccc2ccccc12 (stereo not given)")
1.19
>>> experimental_value("O=C(O)c1ccc(/C=C2\\SC(=S)N(c3cccc(C(F)(F)F)c3)C2=O)cc1")
2.44

* * *

Each entry below carries its recorded inhibition.
SYSTEM_UNDER_TEST: Cystic fibrosis transmembrane conductance regulator (Homo sapiens) (UniProt P13569)
Sequence (P13569 whole entry, looked up): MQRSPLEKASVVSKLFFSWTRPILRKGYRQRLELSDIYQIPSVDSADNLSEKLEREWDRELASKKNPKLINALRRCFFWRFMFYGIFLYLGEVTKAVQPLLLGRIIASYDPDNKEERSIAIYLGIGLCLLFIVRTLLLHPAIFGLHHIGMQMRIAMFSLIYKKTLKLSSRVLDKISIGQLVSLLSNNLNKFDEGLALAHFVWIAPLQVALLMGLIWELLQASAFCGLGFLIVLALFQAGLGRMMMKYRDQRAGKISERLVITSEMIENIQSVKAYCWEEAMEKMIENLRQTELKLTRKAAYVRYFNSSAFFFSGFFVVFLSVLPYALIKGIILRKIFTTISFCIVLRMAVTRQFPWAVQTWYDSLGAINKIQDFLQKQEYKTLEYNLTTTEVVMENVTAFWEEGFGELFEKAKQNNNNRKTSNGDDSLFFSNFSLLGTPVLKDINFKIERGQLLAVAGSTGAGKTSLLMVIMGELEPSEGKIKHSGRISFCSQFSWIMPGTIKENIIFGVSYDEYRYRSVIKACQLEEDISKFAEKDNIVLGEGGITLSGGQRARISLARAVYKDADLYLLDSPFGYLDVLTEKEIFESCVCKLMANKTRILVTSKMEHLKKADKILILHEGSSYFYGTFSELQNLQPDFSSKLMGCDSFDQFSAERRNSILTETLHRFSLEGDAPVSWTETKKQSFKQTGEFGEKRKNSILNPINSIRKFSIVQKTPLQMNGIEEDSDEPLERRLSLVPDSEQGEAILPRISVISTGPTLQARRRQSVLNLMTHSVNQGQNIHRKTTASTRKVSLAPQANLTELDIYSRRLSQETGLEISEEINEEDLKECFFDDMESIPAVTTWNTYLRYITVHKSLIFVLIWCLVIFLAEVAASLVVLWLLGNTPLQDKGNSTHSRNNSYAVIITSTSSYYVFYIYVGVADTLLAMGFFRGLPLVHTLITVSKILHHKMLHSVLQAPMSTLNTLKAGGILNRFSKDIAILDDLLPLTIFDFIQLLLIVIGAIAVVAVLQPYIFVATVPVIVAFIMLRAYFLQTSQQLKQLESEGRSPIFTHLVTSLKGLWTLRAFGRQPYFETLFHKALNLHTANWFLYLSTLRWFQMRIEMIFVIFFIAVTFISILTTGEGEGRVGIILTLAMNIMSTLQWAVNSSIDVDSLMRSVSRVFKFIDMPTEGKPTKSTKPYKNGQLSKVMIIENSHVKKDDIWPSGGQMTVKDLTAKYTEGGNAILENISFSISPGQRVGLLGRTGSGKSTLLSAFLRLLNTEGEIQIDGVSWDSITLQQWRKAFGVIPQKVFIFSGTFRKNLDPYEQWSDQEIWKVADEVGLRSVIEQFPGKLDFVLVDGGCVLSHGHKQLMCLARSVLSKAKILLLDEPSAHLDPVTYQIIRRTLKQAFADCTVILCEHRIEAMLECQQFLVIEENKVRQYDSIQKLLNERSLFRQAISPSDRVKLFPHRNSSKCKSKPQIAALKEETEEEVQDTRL
MEASUREMENT_NOTES: Inhibition of CFTR in human HT-29 cells assessed as effect on intracellular chloride efflux at 20 uM relative to control
Type: cell-based
READOUT_NAME: inhibition (%)

>>> experimental_value("CN1CCN(C(=O)c2ccc(/C=C3\\SC(=S)N(c4cccc(OC(F)(F)F)c4)C3=O)cc2)CC1")
69
>>> experimental_value("O=C(O)c1ccc(/C=C2\\SC(=S)N(Cc3cccc(OC(F)(F)F)c3)C2=O)cc1")
12
>>> experimental_value("CN1CCN(C(=O)c2ccc(/C=C3\\SC(=S)N(Cc4cccc(C(F)(F)F)c4)C3=O)cc2)CC1")
10
>>> experimental_value("O=C(c1ccc(/C=C2\\SC(=S)N(c3cccc(C(F)(F)F)c3)C2=O)cc1)N1CCC(O)CC1")
72
